What combination Emax was measured for each of the following?
tested on: 22RV1 (Prostate Carcinoma); test: combination Emax (second highest fraction inhibited in the dose matrix, 72 h); higher = more inhibition; extreme values may be limits of the assay
Numbers only.

Known results for compounds:
Cc1cc2ncnn2cc1Nc1ncc2c(n1)n(C1CCOCC1)c(=O)n2C [AZD7648] + CCN(CCO)CCCOc1ccc2c(Nc3cc(CC(=O)Nc4cccc(F)c4)[nH]n3)ncnc2c1 [AZD2811] (first compound max 10 µM, 7x7, partner max 1 µM) : 0.396
C[C@@H](Oc1cc(-c2cnn(C3CCNCC3)c2)cnc1N)c1c(Cl)ccc(F)c1Cl [Crizotinib] + CC1=C(C(=CC=C1)Cl)NC(=O)C2=CN=C(S2)NC3=CC(=NC(=N3)C)N4CCN(CC4)CCO [Dasatinib] (first compound max 10 µM, 7x7, partner max 2 µM) : 0.468
COc1cccc(OCCCN)c1-c1cc(Nc2cnc(C#N)cn2)n[nH]1 [Prexasertib] + C[C@@H]1COCCN1C2=NC(=NC(=C2)C3(CC3)[S@](=N)(=O)C)C4=C5C=CNC5=NC=C4 [AZD6738] (first compound max 1 µM, 7x7, partner max 10 µM) : 0.655

Below: the item to evaluate.
Exercise: Fill in the blank: the reported combination Emax of Cc1nc(-c2cn3c(n2)-c2ccc(-c4cnn(C(C)(C)C(N)=O)c4)cc2OCC3)n(C(C)C)n1 [Taselisib] + O=C(Nc1ccc2[nH]nc(-c3ccncc3)c2c1)[C@@H]1CCN(CC(=O)N2CCN(c3ccc(-c4ncccn4)cc3)CC2)C1 [SCH772984] (first compound max 10 µM, 7x7, partner max 5 µM) is ____.
Solution: 0.702

====

tested on: EB2 (Burkitt's Lymphoma); experiment: Bliss excess, mean over the matrix (fraction); higher = more synergy;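 note: after 72 h of two-drug dosing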
Would you mind telling me the reported Bliss excess of each entry?
One number for each entry.

For every record below, what is its Bliss excess?
1. Cc1c2c(nn1C)CSCc1cc(n(C)n1)CSc1cc(c3ccccc3c1)OCCCc1c(C(=O)O)n(C)c3c-2c(Cl)ccc13 [AZD5991] + CC(=O)O[C@H]1C(=O)[C@@]2(C)[C@H]([C@H](OC(=O)c3ccccc3)[C@]3(O)C[C@H](OC(=O)[C@H](O)[C@@H](NC(=O)c4ccccc4)c4ccccc4)C(C)=C1C3(C)C)[C@]1(OC(C)=O)CO[C@@H]1C[C@@H]2O [Paclitaxel] (first compound max 1 µM, 7x7, partner max 3 µM)
2. Cc1c2c(nn1C)CSCc1cc(n(C)n1)CSc1cc(c3ccccc3c1)OCCCc1c(C(=O)O)n(C)c3c-2c(Cl)ccc13 [AZD5991] + CS(=O)(=O)CCNCc1ccc(-c2ccc3ncnc(Nc4ccc(OCc5cccc(F)c5)c(Cl)c4)c3c2)o1 [Lapatinib] (first compound max 1 µM, 7x7, partner max 10 µM)
3. C=CCn1c(=O)c2cnc(Nc3ccc(N4CCN(C)CC4)cc3)nc2n1-c1cccc(C(C)(C)O)n1 [AZD1775] + Nc1ccn([C@@H]2O[C@H](CO)[C@@H](O)C2(F)F)c(=O)n1 [Gemcitabine] (first compound max 1 µM, partner max 0.3 µM)

Solution:
[-0.083, -0.0287, 0.0066]

====

tested on: CGTH-W-1 (Thyroid Gland Carcinoma); experiment: combination Emax (second highest fraction inhibited in the dose matrix, 72 h); higher = more inhibition; extreme values may be limits of the assay
Assign combination Emax to each entry below.

Cc1c2c(nn1C)CSCc1cc(n(C)n1)CSc1cc(c3ccccc3c1)OCCCc1c(C(=O)O)n(C)c3c-2c(Cl)ccc13 [AZD5991] + CC1(C)CCC(CN2CCN(c3ccc(C(=O)NS(=O)(=O)c4ccc(NCC5CCOCC5)c([N+](=O)[O-])c4)c(Oc4cnc5[nH]ccc5c4)c3)CC2)=C(c2ccc(Cl)cc2)C1 [Venetoclax] (first compound max 1 µM, 7x7, partner max 1 µM) : 0.257

From here, focus on the item given below.
Exercise: Requested read-out: combination Emax. Entry: COc1cc2c(cc1OCCCCCOc1cc3c(cc1OC)C(=O)N1C=C(C)C[C@H]1C=N3)N=C[C@@H]1CC(C)=CN1C2=O [SG3199] + O=C(c1cc(Cc2n[nH]c(=O)c3ccccc23)ccc1F)N1CCN(C(=O)C2CC2)CC1 [Olaparib] (first compound max 0.001 µM, 7x7, partner max 10 µM)
Solution: 0.168
